Cited source: ChEMBL document CHEMBL5131517

biological target: UniProtKB P28223; experiment: Agonist activity at human 5HT2A receptor stably expressed in Flp-In-T-REx-293 cells assessed as increase in Gq-mediated calcium flux by Fluo-4 direct dye based FLIPR Tetra assay
Sequence (P28223 whole entry): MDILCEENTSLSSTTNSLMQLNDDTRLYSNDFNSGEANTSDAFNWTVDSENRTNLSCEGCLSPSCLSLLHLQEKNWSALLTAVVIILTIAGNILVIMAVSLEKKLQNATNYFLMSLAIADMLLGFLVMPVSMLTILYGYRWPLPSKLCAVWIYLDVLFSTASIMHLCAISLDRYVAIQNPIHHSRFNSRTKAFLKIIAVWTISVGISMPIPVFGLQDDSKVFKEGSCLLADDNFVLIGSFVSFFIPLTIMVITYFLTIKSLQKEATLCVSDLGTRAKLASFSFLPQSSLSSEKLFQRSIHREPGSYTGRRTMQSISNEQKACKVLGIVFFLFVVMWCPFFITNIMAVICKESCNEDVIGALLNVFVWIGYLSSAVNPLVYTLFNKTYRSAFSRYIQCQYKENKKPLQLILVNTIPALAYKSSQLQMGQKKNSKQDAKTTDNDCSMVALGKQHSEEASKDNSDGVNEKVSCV
Exam item: assign T to entries whose EC50 is below 300 nM and F to entries at or above 300 nM. Note that a value of exactly 300 nM receives F.

Take a look at these entries with their results.
> print(dat)
                                   compound  answer.label
1  Oc1ccc2[nH]c3c(c2c1)CCNC3c1ccccc1F (centres undefined)             T
2  Clc1ccc2[nH]c3c(c2c1)CCNC3c1ccc2ccccc2c1 (centres undefined)             T
3  Oc1ccc2[nH]c3c(c2c1)CCNC3c1cc(Cl)ccc1O (centres undefined)             F
4  Fc1ccc2[nH]c3c(c2c1)CCNC3c1ccccc1Cl (centres undefined)             T

Identify whether the compound Cn1ccnc1C1NCCc2c1[nH]c1ccc(O)cc21 (centres undefined) records EC50 below 300 nM.
T

Identify whether the compound Oc1ccc2[nH]c3c(c2c1)CCNC3c1cc(Br)ccc1O (centres undefined) records EC50 below 300 nM.
F

Identify whether the compound Fc1ccc2[nH]c3c(c2c1)CCNC3c1cccnc1F (centres undefined) records EC50 below 300 nM.
F

Identify whether the compound Cc1cccc(C2NCCc3c2[nH]c2ccc(Cl)cc32)c1 (centres undefined) records EC50 below 300 nM.
F

Identify whether the compound Oc1cc(Cl)ccc1C1NCCc2c1[nH]c1ccc(F)cc21 (centres undefined) records EC50 below 300 nM.
T

Identify whether the compound COc1ccc(C2NCCc3c2[nH]c2ccc(Cl)cc32)c(O)c1 (centres undefined) records EC50 below 300 nM.
T

Identify whether the compound Clc1ccc2[nH]c3c(c2c1)CCNC3c1cccs1 (centres undefined) records EC50 below 300 nM.
F

Identify whether the compound Oc1ccc2[nH]c3c(c2c1)CCNC3c1cncnc1 (centres undefined) records EC50 below 300 nM.
F

Identify whether the compound Clc1ccc2[nH]c3c(c2c1)CCNC3c1ccccc1 (centres undefined) records EC50 below 300 nM.
T

Identify whether the compound Oc1ccc(Cl)cc1C1NCCc2c1[nH]c1ccc(Cl)cc21 (centres undefined) records EC50 below 300 nM.
F

Identify whether the compound COc1ccc(C2NCCc3c2[nH]c2ccc(Cl)cc32)cc1OC (centres undefined) records EC50 below 300 nM.
T

Identify whether the compound Oc1c(Cl)cccc1C1NCCc2c1[nH]c1ccc(F)cc21 (centres undefined) records EC50 below 300 nM.
T

Identify whether the compound COc1ccc2cc(C3NCCc4c3[nH]c3ccc(F)cc43)ccc2c1 (centres undefined) records EC50 below 300 nM.
F

Identify whether the compound Cc1ccc(C2NCCc3c2[nH]c2ccc(O)cc32)cc1 (centres undefined) records EC50 below 300 nM.
F

Identify whether the compound COc1ccc(C2NCCc3c2[nH]c2ccc(F)cc32)c(O)c1 (centres undefined) records EC50 below 300 nM.
T

Identify whether the compound Clc1ccc2[nH]c3c(c2c1)CCNC3c1ccccc1Br (centres undefined) records EC50 below 300 nM.
F

Identify whether the compound Oc1ccc(C2NCCc3c2[nH]c2ccc(Cl)cc32)c(O)c1 (centres undefined) records EC50 below 300 nM.
T

Identify whether the compound Cc1ccc(C2NCCc3c2[nH]c2ccc(Cl)cc32)c(C)c1 (centres undefined) records EC50 below 300 nM.
F

Identify whether the compound Oc1ccc(C2NCCc3c2[nH]c2ccc(F)cc32)cc1 (centres undefined) records EC50 below 300 nM.
T

Identify whether the compound Oc1ccc2[nH]c3c(c2c1)CCNC3Cc1ccccc1 (centres undefined) records EC50 below 300 nM.
T

###

Quick record: Ki, 5-hydroxytryptamine receptor 1B (Homo sapiens, UniProt P28222).
Answers are plain numbers, in µM.

> print(dat)
                                   compound  endpoint.unit  recorded.measurement
1  COc1ccc(C2NCCc3c2[nH]c2ccc(F)cc32)c(O)c1 (configuration not stated)             µM                0.0708

Let's switch to this compound now.
Sample COc1cc(OC)c(C2NCCc3c2[nH]c2ccc(Cl)cc32)cc1OC (configuration not stated) ; Ki observed: 0.0521

###

target: 5-hydroxytryptamine receptor 2C (Homo sapiens); test: Agonist activity at human 5HT2C receptor stably expressed in Flp-In-T-REx-293 cells assessed as increase in Gq-mediated calcium flux by Fluo-4 direct dye based FLIPR Tetra assay; assay type: functional, cell-based; details: read-out: EC50
ASSAY METRIC: EC50 (nM)
One number for each entry, in nM.

Example results:
> print(dat)
                                   molecule  assay.metric  endpoint.unit  recorded.measurement
1  Clc1ccc2[nH]c3c(c2c1)CCNC3c1ccccc1Br (centres undefined)          EC50             nM                  95.2
2  Cc1ccc(C2NCCc3c2[nH]c2ccc(O)cc32)cc1 (centres undefined)          EC50             nM                  1130
3  Oc1ccc(C2NCCc3c2[nH]c2ccc(Cl)cc32)c(O)c1 (centres undefined)          EC50             nM                   1.9
4  Oc1c(Cl)cccc1C1NCCc2c1[nH]c1ccc(Cl)cc21 (centres undefined)          EC50             nM                   176
5  Clc1ccc2[nH]c3c(c2c1)CCNC3C1CCCCC1 (centres undefined)          EC50             nM                  95.5

// each listed molecule needs a value for EC50
1. COc1cc(OC)c(C2NCCc3c2[nH]c2ccc(Cl)cc32)cc1OC (centres undefined)
2. Oc1ccc2[nH]c3c(c2c1)CCNC3Cc1ccccc1 (centres undefined)
3. Clc1ccc2[nH]c3c(c2c1)CCNC3c1ccncc1Cl (centres undefined)
4. Oc1ccc2[nH]c3c(c2c1)CCNC3c1ccccc1C(F)(F)F (centres undefined)
5. Fc1ncccc1C1NCCc2c1[nH]c1ccc(Cl)cc21 (centres undefined)
6. COc1ccc(C2NCCc3c2[nH]c2ccc(Cl)cc32)c(O)c1 (centres undefined)
7. Cc1ccc(O)c(C2NCCc3c2[nH]c2ccc(F)cc32)c1 (centres undefined)

0.5
481
2810
76.4
1060
8.9
446

// each listed molecule needs a value for EC50
1. Oc1cccc(C2NCCc3c2[nH]c2ccc(O)cc32)c1 (centres undefined)
2. Oc1ccc(Cl)cc1C1NCCc2c1[nH]c1ccc(Cl)cc21 (centres undefined)
3. Fc1ccc2[nH]c3c(c2c1)CCNC3c1cccs1 (centres undefined)

1. 148
2. 3560
3. 147

###

Task for the reader: assign each of the following compounds its reported Emax.
molecular target: 5-hydroxytryptamine receptor 2C (Homo sapiens) (UniProt P28335); assay: Agonist activity at human 5HT2C receptor stably expressed in Flp-In-T-REx-293 cells assessed as maximal Gq-mediated calcium flux by Fluo-4 direct dye based FLIPR Tetra assay relative to control; assay type: functional, cell-based; settings: filed as agonist
Sequence (P28335 whole entry): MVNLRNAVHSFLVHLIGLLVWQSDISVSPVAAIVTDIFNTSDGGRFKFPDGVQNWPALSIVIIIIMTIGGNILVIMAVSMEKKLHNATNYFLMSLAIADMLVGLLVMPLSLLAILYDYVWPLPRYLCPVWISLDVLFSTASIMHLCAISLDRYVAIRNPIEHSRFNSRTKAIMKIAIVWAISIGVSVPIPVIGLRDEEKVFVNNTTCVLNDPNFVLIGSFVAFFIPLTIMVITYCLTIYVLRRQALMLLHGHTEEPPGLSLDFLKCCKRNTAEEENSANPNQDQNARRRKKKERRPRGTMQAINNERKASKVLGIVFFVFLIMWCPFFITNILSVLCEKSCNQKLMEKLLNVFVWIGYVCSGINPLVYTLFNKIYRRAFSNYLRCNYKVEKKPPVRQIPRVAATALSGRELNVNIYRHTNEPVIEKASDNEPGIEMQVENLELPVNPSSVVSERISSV

Example results:
> print(dat)
                                   compound                         target.under.test  assay.metric  recorded.measurement
1  COc1ccc(C2NCCc3c2[nH]c2ccc(O)cc32)c(O)c1 (configuration not stated)  5-hydroxytryptamine receptor 2C (Homo sapiens) (UniProt P28335)          Emax                  114%
2  Fc1ccc2[nH]c3c(c2c1)CCNC3c1ccccc1Br (configuration not stated)  5-hydroxytryptamine receptor 2C (Homo sapiens) (UniProt P28335)          Emax                 75.1%
3  Fc1ccc2[nH]c3c(c2c1)CCNC3c1ccc2ccccc2c1 (configuration not stated)  5-hydroxytryptamine receptor 2C (Homo sapiens) (UniProt P28335)          Emax                  103%
4  Oc1ccc2[nH]c3c(c2c1)CCNC3c1ccccc1F (configuration not stated)  5-hydroxytryptamine receptor 2C (Homo sapiens) (UniProt P28335)          Emax                  102%

// each listed compound needs a value for Emax
1. Cc1ccc(O)c(C2NCCc3c2[nH]c2ccc(F)cc32)c1 (configuration not stated)
2. COc1ccccc1C1NCCc2c1[nH]c1ccc(Cl)cc21 (configuration not stated)
3. CCC1NCCc2c1[nH]c1ccc(F)cc21 (configuration not stated)
4. Oc1cc(Cl)ccc1C1NCCc2c1[nH]c1ccc(F)cc21 (configuration not stated)
5. Oc1ccc2[nH]c3c(c2c1)CCNC3c1cncnc1 (configuration not stated)

1: 99.2%; 2: 82.9%; 3: 96.2%; 4: 107%; 5: 83.3%

// each listed compound needs a value for Emax
1. CCC1NCCc2c1[nH]c1ccc(O)cc21 (configuration not stated)
2. Fc1ccc2[nH]c3c(c2c1)CCNC3c1ccccc1Cl (configuration not stated)
3. COc1ccc(OC)c(C2NCCc3c2[nH]c2ccc(Cl)cc32)c1 (configuration not stated)

["97.6%", "88.1%", "42.4%"]
